Recorded values, source the supplement of paper PMC10290057.

Tested on: HCT116
method.summary: AC50 cell viability (CellTiter-Glo); higher = less potent
measurement.conditions: 48 h
Where a name gives a salt, the structure may show the parent alone.
quantity.measured: AC50 cell viability (µM)
Respond numerically; units are µM and should not be typed.

Answer with the recorded AC50 cell viability for the compound listed here: `NC(=O)c1ccc2[nH]c(-c3ccc(Oc4ccc(Cl)cc4)cc3)nc2c1`
18.6

Answer with the recorded AC50 cell viability for the compound listed here: `COC1=CC=CC(=C1N)\C2=C\C(=O)C3=C(O2)C=CC=C3`
16.6

Answer with the recorded AC50 cell viability for the compound listed here: `COc1ccccc1[C@H](c1cccc2ccccc12)[C@@](C)(C#N)C(=O)N1CCC(c2cccc(C(F)(F)F)c2)CC1`
0.833

Answer with the recorded AC50 cell viability for the compound listed here: `NC1=NC(=C(C#N)C(=N1)N)N[C@@H](C2CC2)\C3=N\C4=C(C(=CC=C4F)Cl)C(=O)N3C5=CC=CN=C5`
18.6

Answer with the recorded AC50 cell viability for the compound listed here: `Cc1ccc(Nc2ncc3c(n2)N(C)C(=O)N(c2cc(NC(=O)c4cccc(C(F)(F)F)c4)ccc2C)C3)cn1`
0.0332

Answer with the recorded AC50 cell viability for the compound listed here: `COc1cc2c(Nc3ccc(Br)cc3F)ncnc2cc1OCC1CCN(C)CC1`
14.8

Answer with the recorded AC50 cell viability for the compound listed here: C[C@@H]\1COC(=N1)\NC2=CC3=C(C=C2)N=CN=C3NC4=CC(=C(OCC5=NC=CS5)C=C4)Cl [Varlitinib tosylate]
16.6

====

Overview of reported efficacy across a group of compounds:
Test system: HCT116
method.summary: efficacy (fitted maximal change in viability relative to DMSO control); higher = less cytotoxic (negative = loss of viability)
measurement.conditions: 48 h
Respond numerically; units are % and should not be typed.

compound	result.unit	efficacy
Nc1n[n+]([O-])c2ccccc2[n+]1[O-] [Tirapazamine]	%	-30.4

// fetch efficacy for COC1=CC=C(C=C1)C(=O)C2CCN(CC2)CC(=O)N(CC3CC3)C\C4=N\C5=C(\COCC5)C(=O)N4 [TNKS-656] ; system: HCT116
-13.6

====

Overview of reported efficacy across a group of molecules:
Tested on: HCT116
method.summary: efficacy (fitted maximal change in viability relative to DMSO control); higher = less cytotoxic (negative = loss of viability)
measurement.conditions: 48 h
Respond numerically; units are % and should not be typed.

Known results for molecules:
> print(dat)
                                   molecule  target.entity  result.unit  measurement
1  COc1cc2c(Oc3ccc(NC(=O)C4(C(=O)Nc5ccc(F)cc5)CC4)cc3F)ccnc2cc1OCCCN1CCOCC1         HCT116            %         -101
2  NC\1=N\C(=O)N(\C=C1)[C@@H]2O[C@H](CO)[C@@H](O)[C@@H]2O         HCT116            %        -61.7
3        Oc1ccc2ccccc2c1SSc1c(O)ccc2ccccc12         HCT116            %         -115
4  CCCC1=NC(=C2[N]1NC(=N\C2=O)/C3=CC(=CC=C3OCC)[S+]([O-])(=O)N4CCN(CC)CC4)C         HCT116            %        -19.1
5  COC1=CC=C(C(=C1)OC(C)C)C/2=N/[C@@H]([C@@H](N2C(=O)N3CCNC(=O)C3)C4=CC=C(Cl)C=C4)C5=CC=C(Cl)C=C5         HCT116            %        -98.3
6  COc1c(N2C[C@@H]3CCCN[C@@H]3C2)c(F)cc2c(=O)c(C(=O)O)cn(C3CC3)c12.Cl.O [Moxifloxacin hydrochloride]         HCT116            %        -9.48

# input for lookup
Answer with the recorded efficacy for the molecule listed here: `COc1ccc(Cc2ccc(NC(N)=O)cc2)cc1-c1cccc(Cl)c1`
-74.8

====

Overview of reported efficacy across a group of compounds:
System: HCT116
method.summary: efficacy (fitted maximal change in viability relative to DMSO control); higher = less cytotoxic (negative = loss of viability)
measurement.conditions: 48 h
Counter-ions that a name gives are not always drawn.
Answers without a unit are incomplete; give the number and then its unit.

Known results for compounds:
> print(dat)
                                   compound  measurement
1  Cc1cnc(-c2ccccc2C(C)C)nc1NCc1ccc(-n2ccnn2)cc1       -34.2%
2  CCOc1cc(N)c(Cl)cc1C(=O)NCC1CN(Cc2ccc(F)cc2)CCO1 (centres undefined) [Mosapride citrate]       -28.4%
3  N#Cc1cc2cc(CN3CCC(Nc4ncnc5sc(CC(F)(F)F)cc45)CC3)c(O)cc2n1Cc1cn[nH]c1        -111%

Answer with the recorded efficacy for the compound listed here: `Oc1c(Cl)cc(Cl)c2cccnc12`
-86.7%

====

Tested on: HCT116
method.summary: AC50 cell viability (CellTiter-Glo); higher = less potent
measurement.conditions: 48 h
quantity.measured: AC50 cell viability (µM)
Respond numerically; units are µM and should not be typed.

Known results for molecules:
> print(dat)
                                   molecule  measurement
1  O=C1NC(=O)/C(=C/c2ccc3nccc(-c4ccncc4)c3c2)S1 [GSK-615]        0.934
2  Nc1cccc(-c2cc3c(Oc4cccc(O)c4)ncnc3[nH]2)c1 [TWS-119]         11.8
3  O=C(CCCCCCNC(=O)c1cnc(N(c2ccccc2)c2ccccc2Cl)nc1)NO [ACY-241]          5.9
4  Cc1ccccc1C(=O)c1ccc(Nc2ccc(Br)cc2N)cc1Cl [EO-1428]         20.9
5  Cn1cc(-c2ccncc2)c(-c2ccc(OCc3ccc4ccccc4n3)cc2)n1 [MP-10]         18.6
6  COc1cc(-c2nn(C3CCC(N4CCN(C(C)=O)CC4)CC3)c3ncnc(N)c23)ccc1NC(=O)c1cc2ccccc2n1C (stereo unspecified)         10.5
7  CCCNC(=O)[C@H]1O[C@@H]1C(=O)N[C@H](C(=O)N1CCC[C@H]1C(=O)OC)C(C)CC (stereo partly specified) [CA-074 Me]         18.6
8  CC1=C(C)C\2=C(S1)[N]3C(=NN=C3C(CC(=O)NC4=CC=C(O)C=C4)\N=C2C5=CC=C(Cl)C=C5)C (stereo unspecified) [Birabresib]        0.833

// fetch AC50 cell viability for `O=C(NCc1ccncc1)C12C[C@H]3C[C@@H](C1)CC(c1ccc(Cl)cc1)(C3)C2` ; system: HCT116
20.9

// fetch AC50 cell viability for CCn1nnc2c(N3CCOCC3)nc(-c3ccc(NC(=O)Nc4ccc(C(=O)N5CCN(C)CC5)cc4)cc3)nc21 [PKI-402] ; system: HCT116
0.118

// fetch AC50 cell viability for CCN(C(=O)C/1=C(O)/C2=C(C=CC=C2Cl)N(C)C1=O)C3=CC=CC=C3 [Laquinimod] ; system: HCT116
10.5

// fetch AC50 cell viability for C=CC(=O)Nc1cccc(Nc2nc(Nc3ccc(Oc4ccnc(C(=O)NC)c4)cc3)ncc2F)c1 [CNX-774] ; system: HCT116
14.8

// fetch AC50 cell viability for COc1cc(N2CCC(N3CCN(C)CC3)CC2)ccc1Nc1ncnc(Nc2ccccc2[S+](=O)([O-])C(C)C)n1 [ASP-3026] ; system: HCT116
4.68

// fetch AC50 cell viability for CC1CC2=CC=CC=C2N1C(=O)C\C3=N\C(=O)\C=C(/N3)N4CCOCC4 (stereo unspecified) ; system: HCT116
18.6

// fetch AC50 cell viability for C[C@H]1O[C@H]([C@H](O)[C@@H]1O)N2\C=C(F)/C(=O)NC2=O [Doxifluridine] ; system: HCT116
7.42

// fetch AC50 cell viability for `Nc1nc(Nc2ccc([S+](N)(=O)[O-])cc2)nn1C(=O)c1c(F)cccc1F` ; system: HCT116
1.66

====

Test system: HCT116
method.summary: efficacy (fitted maximal change in viability relative to DMSO control); higher = less cytotoxic (negative = loss of viability)
measurement.conditions: 48 h
Assign MET whenever efficacy does not fall below -20%; assign NOT MET whenever it does.

Is the recorded value of efficacy equal to or greater than -20% for this compound? O=C(c1ccccc1)c1ccc2n1CCC2C(=O)O (stereo not drawn)
MET

Is the recorded value of efficacy equal to or greater than -20% for this compound? `CCN1CCN(Cc2ccc(NC(=O)c3ccc(C)c(NC(=O)c4cncc(-c5cccs5)c4)c3)cc2C(F)(F)F)CC1`
NOT MET

Is the recorded value of efficacy equal to or greater than -20% for this compound? `CN(C1=CC=CC=C1)C(=O)C/2=C(O)/C3=C(C=CC=C3)N(C)C2=O`
MET

Is the recorded value of efficacy equal to or greater than -20% for this compound? `CN(C)CCN1C(=O)c2cccc3cc(NC(N)=O)cc(c23)C1=O`
NOT MET

Is the recorded value of efficacy equal to or greater than -20% for this compound? `C\C1=C(\[C@@H](OC2=C1C=CC(=C2)O)C3=CC=C(OCCN4CCCCC4)C=C3)C5=CC=C(O)C=C5`
NOT MET

Is the recorded value of efficacy equal to or greater than -20% for this compound? `COc1ccc(N(C)c2nc(C)nc3ccccc23)cc1`
NOT MET

Is the recorded value of efficacy equal to or greater than -20% for this compound? `COC/1=C/[C@@H]2[C@@H]3CC4=C(C(=C(OC)C=C4)O)[C@]2(CCN3C)CC1=O`
NOT MET
